Target Of Assay: Fatty-acid amide hydrolase 1 (Rattus norvegicus)
Sequence (P97612 whole entry): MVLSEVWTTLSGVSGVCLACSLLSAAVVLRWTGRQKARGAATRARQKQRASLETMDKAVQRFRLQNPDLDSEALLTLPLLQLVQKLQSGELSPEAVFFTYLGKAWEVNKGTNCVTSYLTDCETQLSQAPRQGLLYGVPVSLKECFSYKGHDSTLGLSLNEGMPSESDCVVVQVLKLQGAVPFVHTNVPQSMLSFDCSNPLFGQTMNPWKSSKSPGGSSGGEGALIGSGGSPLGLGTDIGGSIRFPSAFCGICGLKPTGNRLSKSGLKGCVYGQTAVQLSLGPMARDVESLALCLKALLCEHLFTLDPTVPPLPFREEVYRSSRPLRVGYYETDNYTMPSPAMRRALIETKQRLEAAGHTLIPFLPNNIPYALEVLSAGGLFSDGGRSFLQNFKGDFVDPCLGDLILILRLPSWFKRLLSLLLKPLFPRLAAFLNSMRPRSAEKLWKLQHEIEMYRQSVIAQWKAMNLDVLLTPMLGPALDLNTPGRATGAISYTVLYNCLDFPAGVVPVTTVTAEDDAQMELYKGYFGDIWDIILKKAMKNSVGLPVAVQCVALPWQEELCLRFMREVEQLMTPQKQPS
Protocol Summary: Inhibition of FAAH in rat brain homogenate using 2-arachidonoyl-[3H]-glycerol as substrate by scintillation counting method
Type: tissue-based
Measurement Kind: IC50 (nM)

Use these answered entries as a reference point.
O=C(N1CCN(Cc2nc3ccccc3n3cccc23)CC1)n1nnc2ccccc21 : 23.6
Cc1ccc2c(nc(CNC3CCN(C(=O)n4nnc5ccccc54)CC3)c3cccn32)c1C : 25.1
O=C(N1CCN(Cc2nc3cc(F)ccc3n3cccc23)CC1)n1nnc2ccccc21 : 23.2

A = O=C(N1CCN(Cc2nc3cc(Cl)ccc3n3cccc23)CC1)n1cncn1
B = O=C(N1CCN(Cc2nc3ccccc3n3cccc23)CC1)n1cncn1
**Q:** Hi there, can you help? I need to know whether A or B has lower measured IC50. Respond with the label that goes with your answer.
**A:** A
(A: 25.1 nM, B: 37 nM)
